Measured values drawn from PubChem BioAssay (EPA / NIEHS) for this set.

Experiment: ATG_TA_CIS: Attagene CIS-FACTORIAL HepG2 Assay for human TA Basal Promoter (AID 2282964)
Conditions: HepG2 Attagene CIS-factorial TA basal promoter reporter; actives raise or lower the signal
Active and inactive are the calls of the source. How the source made its calls: active means hit-call score of the fitted dose curve at least 0.9, where 1 is the maximum; inactive means score below 0.9.
Outcome codes: active, inactive

CC(=O)[O][Hg][c]1ccccc1: inactive
COC(=O)Cc1ccccc1: inactive
C=C(C)C(=O)[O][Sn]([CH2]CCC)([CH2]CCC)[CH2]CCC: active
CCOC(=O)/C=C(C)/C=C/C[C@@H](C)CCCC(C)C: inactive
CC(=O)OC(c1ccccc1)C(Cl)(Cl)Cl (stereo not drawn): inactive
COC(=O)c1sccc1S(=O)(=O)NC(=O)Nc1nc(C)nc(OC)n1: inactive
COP(=S)(OC)Oc1c(Cl)cc(C)cc1Cl: inactive
CCOC(=O)CP(=O)(OCC)OCC: inactive
C[C@H]1CCCC(=O)CCC/C=C/c2cc(O)cc(O)c2C(=O)O1: inactive
NNC(=S)NN: inactive
Cc1cc(=O)[nH]o1: inactive
O=[N+]([O-])c1ccc2c3c(cccc13)CC2: inactive
CCC(C)(C)c1ccc(O)c(C(C)(C)CC)c1: inactive

###

Read-out: NAD(P)H dehydrogenase [quinone] 1 (NQO1), NQO1 (gene 1728)
Assay: LTEA_HepaRG_NQO1: Life Technologies and Expression Analysis (LTEA) Assay for NAD(P)H dehydrogenase [quinone] 1 (NQO1) using HepaRG (AID 2283526)
Details: mRNA level, 48 h; actives raise or lower the signal
Calls of active or inactive are those of the source. The calls were made as follows: active = hit-call score of the fitted dose curve at least 0.9, where 1 is the maximum; inactive = score below 0.9.
Outcome codes: active, inactive

Cn1sc(Cl)cc1=O: inactive
O=C1C2(Cl)C3(Cl)C4(Cl)C(Cl)(Cl)C5(Cl)C3(Cl)C1(Cl)C5(Cl)C24Cl (centres undefined): inactive
CCC(=O)C(CC(C)N(C)C)(c1ccccc1)c1ccccc1 (centres undefined): inactive
C[C@]12CCC(=O)C[C@@H]1CC[C@@H]1[C@@H]2CC[C@]2(C)[C@@H](O)CC[C@@H]12: inactive
C[C@@H]1C[C@@H]([C@H](O)CC2CC(=O)NC(=O)C2)C(=O)[C@@H](C)C1: active
Oc1cccc2cccnc12: inactive
ClC1(Cl)C2(Cl)C3(Cl)C4(Cl)C(Cl)(Cl)C5(Cl)C3(Cl)C1(Cl)C5(Cl)C24Cl (centres undefined): inactive
O=[N+]([O-])c1ccc(O)c([N+](=O)[O-])c1: active
CC12CC1(C)C(=O)N(c1cc(Cl)cc(Cl)c1)C2=O (centres undefined): inactive

###

Target: Peroxisome proliferator-activated receptor gamma (Homo sapiens)
Experiment: ATG_PPARg_TRANS: Attagene TRANS-FACTORIAL HepG2 Assay for human Peroxisome Proliferator-activated Receptor-gamma (PPARg) (AID 2283007)
Records with an inconclusive call do not appear. The source made the active and inactive calls. The calls were made as follows: active = hit-call score of the fitted dose curve at least 0.9, where 1 is the maximum; inconclusive = response in the unintended direction; inactive = score below 0.9.
Outcome codes: active, inactive

CCC(=O)C(CC(C)N(C)C)(c1ccccc1)c1ccccc1 (configuration not stated): inactive
C=C(C)C(=O)[O][Sn]([CH2]CCC)([CH2]CCC)[CH2]CCC: active
O=C/C=C/c1ccccc1: active
CC(=O)c1cc(C(C)(C)C)cc2c1CCC2(C)C: inactive
C=CC(=O)N(C)C: inactive
COc1cc(-c2ccc(N)c(OC)c2)ccc1N: inactive
C=CCc1ccc(OC)cc1: inactive
ClC1=C(Cl)[C@]2(Cl)[C@H]3[C@H]([C@H]4C=C[C@H]3C4)[C@@]1(Cl)C2(Cl)Cl: active
CNC(=O)O/N=C/C(C)(C)S(C)=O (configuration not stated): active
COP(=S)(OC)Oc1ccc(Sc2ccc(OP(=S)(OC)OC)cc2)cc1: active
CCCCOCCOC(C)=O: inactive
C[C@]12CCC(=O)C[C@@H]1CC[C@@H]1[C@@H]2CC[C@]2(C)[C@@H](O)CC[C@@H]12: inactive
Oc1c(I)cc(I)cc1I: active
COc1ccc(C=O)cc1OC: inactive
CC(C)OC(=O)Nc1ccccc1: inactive
CCSC(C)CC1CC(=O)C(C(CC)=NOC/C=C/Cl)=C(O)C1 (configuration not stated): active
Cc1ccccc1C(=O)Nc1cccc(OC(C)C)c1: active
Cc1ccc2ccccc2c1C: inactive
C1CCC(NC2CCCCC2)CC1: inactive
CC(=O)[O][Hg][c]1ccccc1: inactive
C=CC(=O)OCCCCCC(C)C: inactive
c1ccc(N=NNc2ccccc2)cc1: active
c1cc[c]([Hg][c]2ccccc2)cc1: active
CC(C)(c1ccc(OCC2CO2)cc1)c1ccc(OCC2CO2)cc1 (configuration not stated): inactive
COc1cc2c(cc1OC)[C@@]13CCN4CC5=CCO[C@H]6CC(=O)N2[C@H]1[C@H]6[C@H]5C[C@H]43: inactive
CC(=O)C(Cl)C(=O)N(C)C (configuration not stated): inactive
CCCCCCCCC(=O)NCc1ccc(O)c(OC)c1: active

###

Target: Nuclear respiratory factor 1 (Homo sapiens) (UniProt Q16656)
Sequence (Q16656 whole entry, looked up): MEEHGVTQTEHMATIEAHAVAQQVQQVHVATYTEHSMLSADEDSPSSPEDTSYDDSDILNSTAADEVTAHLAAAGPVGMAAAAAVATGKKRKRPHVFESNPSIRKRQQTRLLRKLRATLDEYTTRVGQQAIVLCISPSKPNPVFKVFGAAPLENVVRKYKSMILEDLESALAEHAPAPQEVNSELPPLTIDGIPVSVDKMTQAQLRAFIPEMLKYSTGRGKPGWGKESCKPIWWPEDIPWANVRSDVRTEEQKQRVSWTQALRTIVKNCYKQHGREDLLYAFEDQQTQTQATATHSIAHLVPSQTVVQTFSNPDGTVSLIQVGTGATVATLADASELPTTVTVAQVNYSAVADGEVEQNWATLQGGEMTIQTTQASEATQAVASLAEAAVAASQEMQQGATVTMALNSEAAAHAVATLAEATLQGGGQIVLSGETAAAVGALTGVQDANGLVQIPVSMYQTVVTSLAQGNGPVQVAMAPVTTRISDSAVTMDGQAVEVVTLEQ
Experiment: ATG_NRF1_CIS: Attagene CIS-FACTORIAL HepG2 Assay for human Nuclear Respiratory Factor 1 (NRF1) Orphan Gene (AID 2282987)
Conditions: HepG2 NRF1 cis-element reporter, Attagene multiplex; actives raise or lower the signal
Calls of active or inactive are those of the source. The calls were made as follows: active = hit-call score of the fitted dose curve at least 0.9, where 1 is the maximum; inactive = score below 0.9.
Outcome codes: TRUE = active, FALSE = inactive

CC(Br)C(=O)O (stereo not given): FALSE
CCC(=O)c1ccccc1: FALSE
CC(=O)C=C(C)C: FALSE
C[C@]12CC[C@H](O)CC1=CC[C@@H]1[C@@H]2CC[C@]2(C)C(=O)CC[C@@H]12: FALSE
Fc1ccc(C2(Cn3cncn3)OC2c2ccccc2Cl)cc1 (stereo not given): FALSE
Nc1cccc2ccccc12: FALSE
COP(=O)(OC)O/C(=C\Cl)c1cc(Cl)c(Cl)cc1Cl: TRUE
O=P(O)(O)CN(CP(=O)(O)O)CP(=O)(O)O: FALSE
O=C(NCO)NCO: FALSE
ClCC(Cl)CCl: FALSE

###

Read-out: Collagen I, COL1A1 (gene 1277)
Experiment: BSK_MyoF_CollagenI: BioMAP Diversity Plus: MyoF Assay for Collagen I Biomarker Activity (AID 2284238)
Settings: primary human lung fibroblasts
The source made the active and inactive calls. Rule for the calls: active = hit-call score of the fitted dose curve at least 0.9, where 1 is the maximum; inactive = score below 0.9.
Outcome codes: active, inactive

CCCCC(CC)CO[N+](=O)[O-] (stereo unspecified): inactive
COP(=S)(OC)Oc1c(Cl)cc(C)cc1Cl: inactive
ClC1=C(Cl)[C@]2(Cl)[C@H]3[C@H]([C@H]4C=C[C@H]3C4)[C@@]1(Cl)C2(Cl)Cl: inactive
Oc1ccc(-c2ccccc2)cc1: inactive
CCCCCCCCC(=O)NCc1ccc(O)c(OC)c1: inactive
O=C(OC1CCCCC1)c1ccccc1C(=O)OC1CCCCC1: active

###

Read-out: MicroRNA 122 (MIR122), gene 406906
Test: LTEA_HepaRG_MIR122: Life Technologies and Expression Analysis (LTEA) Assay for MicroRNA 122 (MIR122) using HepaRG (AID 2283516); further: the transcript read is the microRNA miR-122
Details: mRNA level, 48 h; actives raise or lower the signal
The source made the active and inactive calls. Rule for the calls: active = hit-call score of the fitted dose curve at least 0.9, where 1 is the maximum; inactive = score below 0.9.
Outcome codes: active, inactive

CC(C)(C)c1cc(O)ccc1O: inactive
CCN1CCC2(CC1)COc1cc3c(cc12)N(C(=O)c1ccc(-c2ccc(-c4nnc(C)o4)cc2C)cc1)CC3: inactive
C=CC(=O)OCCCCCC(C)C: inactive
O=C1C2(Cl)C3(Cl)C4(Cl)C(Cl)(Cl)C5(Cl)C3(Cl)C1(Cl)C5(Cl)C24Cl (stereo unspecified): active
CC12CC1(C)C(=O)N(c1cc(Cl)cc(Cl)c1)C2=O (stereo unspecified): inactive
CCOP(=S)(OCC)Oc1nc(Cl)c(Cl)cc1Cl: inactive
CCC(C)(C)c1ccc(O)c(C(C)(C)CC)c1: inactive
O=C(O)C(F)(F)C(F)(F)C(F)(F)C(F)(F)C(F)(F)C(F)(F)F: inactive
ClC1(Cl)C2(Cl)C3(Cl)C4(Cl)C(Cl)(Cl)C5(Cl)C3(Cl)C1(Cl)C5(Cl)C24Cl (stereo unspecified): inactive
Cc1ccccc1N: inactive
C[C@]12CCC(=O)C[C@@H]1CC[C@@H]1[C@@H]2CC[C@]2(C)[C@@H](O)CC[C@@H]12: inactive

###

Read-out: Vascular cell adhesion molecule 1 (VCAM1), VCAM1 (gene 7412)
Assay: BSK_4H_VCAM1: BioMAP Diversity Plus: 4H Assay for Vascular cell adhesion molecule 1 (VCAM1) Biomarker Activity (AID 2283033)
Conditions: primary human endothelial cells (HUVEC); actives raise or lower the signal
Active and inactive are the calls of the source. The calls were made as follows: active = hit-call score of the fitted dose curve at least 0.9, where 1 is the maximum; inactive = score below 0.9.
ENDPOINT LABEL: AC50

CCC(C)(C)c1ccc(O)c(C(C)(C)CC)c1: 10.4 µM (active)
CCCCC(CC)CO[N+](=O)[O-] (stereo not given): 30.5 µM (active)
Oc1c(I)cc(I)cc1I: 20 µM (active)
ClC1=C(Cl)[C@]2(Cl)[C@H]3[C@H]([C@H]4C=C[C@H]3C4)[C@@]1(Cl)C2(Cl)Cl: 7.9 µM (active)
Nc1ccc(-c2ccc(N)c(Cl)c2)cc1Cl: 9.55 µM (active)
COP(=S)(OC)Oc1ccc(S(=O)(=O)N(C)C)cc1: inactive
CC(C)(c1ccccc1)c1ccc(O)c(C(C)(C)c2ccccc2)c1: 8.48 µM (active)
O=C(Nc1ccc2[nH]ccc2c1)c1cc2cc(F)ccc2n1Cc1cccc(F)c1: 8.66 µM (active)
NC(=S)Nc1ccccc1: inactive
CCSC(C)CC1CC(=O)C(C(CC)=NOC/C=C/Cl)=C(O)C1 (stereo not given): inactive
